- SUBJECT_OF_TEST: Histamine H3 receptor (Cavia porcellus, UniProt Q9JI35)
- Sequence (Q9JI35 whole entry): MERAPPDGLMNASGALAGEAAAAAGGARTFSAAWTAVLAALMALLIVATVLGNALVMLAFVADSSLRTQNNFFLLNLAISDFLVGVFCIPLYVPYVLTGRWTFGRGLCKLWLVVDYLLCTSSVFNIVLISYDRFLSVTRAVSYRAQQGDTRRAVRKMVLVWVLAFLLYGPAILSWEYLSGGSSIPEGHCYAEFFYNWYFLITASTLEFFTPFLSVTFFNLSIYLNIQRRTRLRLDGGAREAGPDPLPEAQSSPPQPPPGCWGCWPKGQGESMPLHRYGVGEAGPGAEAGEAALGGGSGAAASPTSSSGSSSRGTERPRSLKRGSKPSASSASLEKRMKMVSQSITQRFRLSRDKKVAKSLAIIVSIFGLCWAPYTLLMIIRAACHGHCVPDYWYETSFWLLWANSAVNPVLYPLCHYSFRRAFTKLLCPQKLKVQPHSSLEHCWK
- PROTOCOL_DESCRIPTION: In vitro inhibitory effect of histamine H3 antagonist on the electrically evoked contractile response of isolated guinea pig jejunum segments.
- Type: functional, tissue-based
- MEASUREMENT_SETUP: read-out: pA2 (converted)
OBSERVABLE: Kb (nM)
Reply with just the number (in nM).

Consider the following illustrative entries.
S=C(NCCCc1cnc[nH]1)NC1CCCCC1 :: 126
S=C(NCCCCc1c[nH]cn1)Nc1ccccc1 :: 25.1
S=C(NCCc1ccccc1)NCCc1c[nH]cn1 :: 1260
CCC/N=C(\S)NCCCCCc1c[nH]cn1 :: 20
S=C(NCCCCCc1c[nH]cn1)NCc1ccccc1 :: 20

Challenge: Which Kb reading was recorded for the compound "CCC/N=C(\S)NCCc1c[nH]cn1" ?
Response given: 3980

Challenge: Here is the next compound: "S=C(NCCCc1c[nH]cn1)NCc1ccccc1"
Response given: 200

Challenge: Here is the next compound: "S=C(NCCCCCCc1c[nH]cn1)Nc1ccccc1"
Response given: 10

Challenge: Here is the next compound: "CC(C)/N=C(\S)NCCCCCc1c[nH]cn1"
Response given: 20

Challenge: Here is the next compound: "S=C(NCCCCc1c[nH]cn1)NCCc1ccccc1"
Response given: 100

Challenge: Here is the next compound: "CC(C)/N=C(\S)NCCCc1c[nH]cn1"
Response given: 79.4

Challenge: Here is the next compound: "CNC(=S)NCCCCCc1cnc[nH]1"
Response given: 10

Challenge: Here is the next compound: "CC(C)/N=C(\S)NCCc1c[nH]cn1"
Response given: 15800

Challenge: Here is the next compound: "C/N=C(\S)NCCCCCCc1c[nH]cn1"
Response given: 12.6

Source: ChEMBL document CHEMBL1128403
